- testMethodNotes: PK study using rats, oral administration, plasma levels by HPLC-MS/MS
- Format: in vivo, Sprague–Dawley rats
- conditionDescription: Sprague-Dawley; rat plasma, oral (gavage) 25 mg/kg, mean ± SD; read-out: MRT0−t (converted)
I'd appreciate it if you could supply MRT last values for the items below.
Supply the numeric figure in h, leaving out any unit text.

In: Fill in the blank: the reported MRT last of Cc1ccc(CC2CCC3C4CCCN5CCCC(CN3C2=O)C45)cc1 (centres unmarked) is ____.
Out: 7.67

In: Fill in the blank: the reported MRT last of Cc1cccc(CC2CCC3C4CCCN5CCCC(CN3C2=O)C45)c1 (centres unmarked) is ____.
Out: 7.4

====

- testMethodNotes: PK study using rats, oral administration, plasma levels by HPLC-MS/MS
- Type: in vivo, Sprague–Dawley rats
- conditionDescription: Sprague-Dawley, rat, plasma, po, 25 mg/kg, oral (gavage) 25 mg/kg, mean ± SD, first AUC0-t line of Table 3
I'd appreciate it if you could supply AUC(0-t) values for the items below.
Supply the numeric figure in ng·h/mL, leaving out any unit text.

In: Fill in the blank: the reported AUC(0-t) of Cc1cccc(CC2CCC3C4CCCN5CCCC(CN3C2=O)C45)c1 (centres unmarked) [3MBM, 14-(3-methylbenzyl)matrine] is ____.
Out: 7210

In: Fill in the blank: the reported AUC(0-t) of Cc1ccc(CC2CCC3C4CCCN5CCCC(CN3C2=O)C45)cc1 (centres unmarked) [4MBM, 14-(4-methylbenzyl)matrine] is ____.
Out: 7680

====

- testMethodNotes: PK study using rats, oral administration, plasma levels by HPLC-MS/MS
- Format: in vivo, Sprague–Dawley rats
- conditionDescription: Sprague-Dawley, rat, plasma, po, 25 mg/kg, oral (gavage) 25 mg/kg, mean ± SD
quantityMeasured: Tmax (h)
Supply the numeric figure in h, leaving out any unit text.

In: Fill in the blank: the reported Tmax of Cc1cccc(CC2CCC3C4CCCN5CCCC(CN3C2=O)C45)c1 (centres unmarked) is ____.
Out: 1.47

====

I'd appreciate it if you could supply k el values for the items below.
- testMethodNotes: PK study using rats, oral administration, plasma levels by HPLC-MS/MS
- Type: in vivo, Sprague–Dawley rats
- conditionDescription: Sprague-Dawley; rat plasma, oral (gavage) 25 mg/kg, mean ± SD; read-out: Ke (converted)
Supply the numeric figure in s⁻¹, leaving out any unit text.

In: Fill in the blank: the reported k el of Cc1cccc(CC2CCC3C4CCCN5CCCC(CN3C2=O)C45)c1 (centres unmarked) is ____.
Out: 3.92e-05

In: Fill in the blank: the reported k el of Cc1ccc(CC2CCC3C4CCCN5CCCC(CN3C2=O)C45)cc1 (centres unmarked) is ____.
Out: 3.94e-05

====

- testMethodNotes: PK study using rats, oral administration, plasma levels by HPLC-MS/MS
- Format: in vivo, Sprague–Dawley rats
- conditionDescription: Sprague-Dawley; rat plasma, oral (gavage) 25 mg/kg, mean ± SD
I'd appreciate it if you could supply Cmax values for the items below.

In: Fill in the blank: the reported Cmax of Cc1cccc(CC2CCC3C4CCCN5CCCC(CN3C2=O)C45)c1 (centres unmarked) is ____.
Out: 1050 ng/mL

In: Fill in the blank: the reported Cmax of Cc1ccc(CC2CCC3C4CCCN5CCCC(CN3C2=O)C45)cc1 (centres unmarked) is ____.
Out: 992 ng/mL
